Origin of measurements: patent US20240029824A1

- TARGET DESC: T1, DHT03_3arm_A21/B21/C82 chain C
- T1 construct: also called chain C DHR82 fusion; chain C of C3-DHT03-01-DHR82 and C4-DHT03-01-DHR82
- T1 chain: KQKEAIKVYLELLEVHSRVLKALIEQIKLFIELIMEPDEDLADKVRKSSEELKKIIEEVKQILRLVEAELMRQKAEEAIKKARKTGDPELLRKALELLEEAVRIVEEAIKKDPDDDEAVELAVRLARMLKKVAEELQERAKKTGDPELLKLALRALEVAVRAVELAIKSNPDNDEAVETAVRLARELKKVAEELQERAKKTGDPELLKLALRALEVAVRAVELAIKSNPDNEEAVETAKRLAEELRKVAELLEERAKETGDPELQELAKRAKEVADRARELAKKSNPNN
- METHOD SUMMARY: three components purified separately, mixed equimolar, heat annealed, SEC, negative stain EM
- Description: As is evident from the images in FIGS. 4c and 4d, the cyclic structures retain one of the original heterotrimer helical hairpins in each corner; these short, outward facing protein chains provide fusion points for further elaboration of higher order symmetric assemblies. […]
TEST READOUT: binding result

{"BINDER": "C4-DHT03-01 chain B (designed binder, four copies in the A4B4C4 ring; also called C4-DHT03-01-DHR82 chain B) MGTTNFHLINGSEEARQLIQKAVEAISKKEGTEVHFEKSDGTLEIRVKNLHPRQEDLIKKFIEALLLALVAKGELEQAEKEGDAEVALRAVEKVVRVAELLLRLAKEAGSEEALKAALEIAEQAARLAARVFTLAVKQNDSDVAKRAVELIKRVAELLKRIAKESGSEEAKERAEKVEKAAEVAEIAARILDQLSNTELAKEALKLASEALKSDIKEALEVVRLALRIVQQLPDTELAREALELAKEAVKSTDSEQLEVVRLALEIVQLAPDTRLARAALKLAKEAVKSTDQEELKKVKAILRVASEVLKLEEEAKKSQEEVERLKQEVEKASKAGLDHEGDSRIFKKIHDVVTKQIKVILRLIAVYAELVAIIG", "RESULT": "binds"}
{"BINDER": "C3-DHT03-01 chain A (designed binder, three copies in the A3B3C3 ring; also called C3-DHT03-01-DHR82 chain A) TTNFHLINGSEEARQLIQKAVEAISKKEGTEVHFEKSDGTLEIRVKNLHPRQEDLIKKFIEALLLALVAKGELEQAEKEGDAEVALRAVEKVVRVAELLLRLAKEAGSEEALKAALEIAEQAARLAKRVLELAEKQGDAEVALKAVLLVVIVAALLVKIAKESGSEEAKERATRVAREASRLADRVEELARKQNNEDVTLAAKVLKLAADIIAQLMNTELAEEAAQLATEALKATDREQLEVVRLALEIVQLAPDTRLARAALKLAKEAVKSTDQEELKKVKAILRVASEVLKLEEEAKKSQEEVERLKQEVEKASKAGLDHEGDSRIFKKIHDVVTKQIKVILRLIAVYAELVAIIG", "RESULT": "binds"}
{"BINDER": "C3-DHT03-01 chain B (designed binder, three copies in the A3B3C3 ring; also called C3-DHT03-01-DHR82 chain B) NTHFIVVHGGEEARQLAETAVREISKKEGTEVRFEKKDGLLSIEVKNLSEELQRLIQELLQLLVRLAALLEAVRAVEEAIKRNPDNDEAVETAVRLARELKKVAELLQELAKKAGVPAILRGALLALEVAVRAVELAIKSNPDNDEAVETAVRLAVVKLALEIVQQLPDTELAREALELAKEAVKSTDSEALKVVYLALRIVQQLPDTELARLALELAKKAVEMTAQEVLEIARAALKAAQAFPNTELAELMLRLAEVAARVMKELERNDEEIKKSDELDDESLLEDIVELLKEIIKLWKILVEVSDVMLKLIS", "RESULT": "binds"}
